Hello, the source for this data is patent US9487554B2, in case you need it.

Assay: Thermodynamic solubility in aqueous buffer pH 6.5 (shake-flask method)
Format: physicochemical
Conditions: aqueous buffer, thermodynamic from solid; phosphate buffer pH 6.5, room temperature, 24 h, shake-flask; read-out: solubility

compound	solubility at 24 h [µg/mL]
CC1(C)CC[C@@]2(CC[C@H]3[C@@H]4CCc5cc(C(N)=O)ccc5[C@H]4CC[C@@]32C)OC1=O [EM-1404, reference compound]	0.1

* * *

A collection of compounds and their measured IC50
Target: recombinant human AKR1C3 (Homo sapiens (Human), UniProt P42330)
Sequence (P42330 whole entry): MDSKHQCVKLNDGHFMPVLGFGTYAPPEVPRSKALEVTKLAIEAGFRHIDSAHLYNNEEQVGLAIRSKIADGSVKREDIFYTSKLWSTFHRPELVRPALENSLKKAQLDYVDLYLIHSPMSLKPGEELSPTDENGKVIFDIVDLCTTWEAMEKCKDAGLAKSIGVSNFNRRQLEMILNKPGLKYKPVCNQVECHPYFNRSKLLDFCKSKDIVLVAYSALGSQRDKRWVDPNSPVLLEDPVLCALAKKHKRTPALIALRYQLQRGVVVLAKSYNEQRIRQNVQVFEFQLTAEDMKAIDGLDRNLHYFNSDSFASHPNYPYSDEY
Assay: AKR1C3 enzyme inhibition assay (Coumberone to Coumberol fluorescence)
Conditions: individual experimental determinations
observationType: IC50 (nM)

compound	studySystem	measureUnit	observedMeasurement
C[C@]12CC[C@@H]3c4ccc(C(=O)NCCC(=O)O)cc4CC[C@H]3[C@@H]1CC=C2c1cncc(C(F)(F)F)c1 [Example 21]	recombinant human AKR1C3 (Homo sapiens (Human), UniProt P42330)	nM	8.5
CN(CCC(=O)O)C(=O)c1ccc2c(c1)CC[C@@H]1[C@@H]2CC[C@]2(C)C(c3cncc(C(F)(F)F)c3)=CC[C@@H]12 [Example 22]	recombinant human AKR1C3 (Homo sapiens (Human), UniProt P42330)	nM	4.2
C[C@]12CC[C@@H]3c4ccc(C(=O)N5CCC[C@H]5C(=O)O)cc4CC[C@H]3[C@@H]1CC=C2c1cncc(F)c1 [Example 23]	recombinant human AKR1C3 (Homo sapiens (Human), UniProt P42330)	nM	1.9
CN(CCC(=O)O)C(=O)c1ccc2c(c1)CC[C@@H]1[C@@H]2CC[C@]2(C)C(c3cccnc3)=CC[C@@H]12 [Example 29]	recombinant human AKR1C3 (Homo sapiens (Human), UniProt P42330)	nM	2.5
C[C@]12CC[C@@H]3c4ccc(C(=O)N5CCC[C@@H]5C(=O)O)cc4CC[C@H]3[C@@H]1CC=C2c1cncc(F)c1 [Example 24]	recombinant human AKR1C3 (Homo sapiens (Human), UniProt P42330)	nM	5.3
Cc1cc(C2=CC[C@H]3[C@@H]4CCc5cc(C(=O)N(C)CCC(=O)O)ccc5[C@H]4CC[C@]23C)cnn1 [Example 28]	recombinant human AKR1C3 (Homo sapiens (Human), UniProt P42330)	nM	0.5

* * *

Listed here: items and their measured pIC50.
Molecular target: Human CYP17A1 (Homo sapiens (Human), UniProt P05093)
Sequence (P05093 whole entry): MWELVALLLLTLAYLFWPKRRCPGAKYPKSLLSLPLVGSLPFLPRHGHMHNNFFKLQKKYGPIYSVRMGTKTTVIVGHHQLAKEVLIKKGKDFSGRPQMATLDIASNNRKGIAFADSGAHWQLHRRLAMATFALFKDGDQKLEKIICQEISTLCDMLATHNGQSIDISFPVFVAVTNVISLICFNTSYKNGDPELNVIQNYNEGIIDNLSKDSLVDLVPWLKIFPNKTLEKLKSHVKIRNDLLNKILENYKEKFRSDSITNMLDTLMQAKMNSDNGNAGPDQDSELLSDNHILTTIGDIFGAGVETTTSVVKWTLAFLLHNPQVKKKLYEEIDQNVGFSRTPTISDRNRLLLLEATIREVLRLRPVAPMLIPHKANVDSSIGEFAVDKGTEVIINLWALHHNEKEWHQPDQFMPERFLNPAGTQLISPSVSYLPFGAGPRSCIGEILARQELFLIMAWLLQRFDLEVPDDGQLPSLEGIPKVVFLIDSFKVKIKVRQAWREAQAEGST
Assay: Inhibition of CYP17A1 (recombinant enzyme, progesterone hydroxylation, HPLC radio detection)
Settings: human CYP17A1 expressed in E. coli; mean of 3 or 4 independent IC50 values; read-out: IC50 ± SD CYP17
pIC50: −log10 of the molar value.
observationType: pIC50

compound	observationType	observedMeasurement
C[C@]12CC[C@H](O)CC1=CC[C@@H]1[C@@H]2CC[C@]2(C)C(c3cccnc3)=CC[C@@H]12 [Abiraterone, abiraterone, reference compound]	pIC50	7.54
C[C@]12CC[C@@H]3c4ccc(C(=O)NCC(=O)O)cc4CC[C@H]3[C@@H]1CC=C2c1cncc(F)c1 [Example 10]	pIC50	4.82
CC(C)(CNC(=O)c1ccc2c(c1)CC[C@@H]1[C@@H]2CC[C@]2(C)C(c3cncc(F)c3)=CC[C@@H]12)C(=O)O [Example 5]	pIC50	4.07

* * *

Assay: Thermodynamic solubility in aqueous buffer pH 6.5 (shake-flask method)
Type: physicochemical
Details: pH 6.5, aqueous buffer, thermodynamic from solid

smi	solubility at 24 h (µg/mL)
CN(CCC(=O)O)C(=O)c1ccc2c(c1)CC[C@@H]1[C@@H]2CC[C@]2(C)C(c3cncc(F)c3)=CC[C@@H]12	354
